SYSTEM: human ether-à-go-go-related gene (hERG) potassium channel (human, UniProt Q12809);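 also: peak tail current of the secondary pulse compared with the same well before compound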
Sequence (Q12809 whole entry, looked up): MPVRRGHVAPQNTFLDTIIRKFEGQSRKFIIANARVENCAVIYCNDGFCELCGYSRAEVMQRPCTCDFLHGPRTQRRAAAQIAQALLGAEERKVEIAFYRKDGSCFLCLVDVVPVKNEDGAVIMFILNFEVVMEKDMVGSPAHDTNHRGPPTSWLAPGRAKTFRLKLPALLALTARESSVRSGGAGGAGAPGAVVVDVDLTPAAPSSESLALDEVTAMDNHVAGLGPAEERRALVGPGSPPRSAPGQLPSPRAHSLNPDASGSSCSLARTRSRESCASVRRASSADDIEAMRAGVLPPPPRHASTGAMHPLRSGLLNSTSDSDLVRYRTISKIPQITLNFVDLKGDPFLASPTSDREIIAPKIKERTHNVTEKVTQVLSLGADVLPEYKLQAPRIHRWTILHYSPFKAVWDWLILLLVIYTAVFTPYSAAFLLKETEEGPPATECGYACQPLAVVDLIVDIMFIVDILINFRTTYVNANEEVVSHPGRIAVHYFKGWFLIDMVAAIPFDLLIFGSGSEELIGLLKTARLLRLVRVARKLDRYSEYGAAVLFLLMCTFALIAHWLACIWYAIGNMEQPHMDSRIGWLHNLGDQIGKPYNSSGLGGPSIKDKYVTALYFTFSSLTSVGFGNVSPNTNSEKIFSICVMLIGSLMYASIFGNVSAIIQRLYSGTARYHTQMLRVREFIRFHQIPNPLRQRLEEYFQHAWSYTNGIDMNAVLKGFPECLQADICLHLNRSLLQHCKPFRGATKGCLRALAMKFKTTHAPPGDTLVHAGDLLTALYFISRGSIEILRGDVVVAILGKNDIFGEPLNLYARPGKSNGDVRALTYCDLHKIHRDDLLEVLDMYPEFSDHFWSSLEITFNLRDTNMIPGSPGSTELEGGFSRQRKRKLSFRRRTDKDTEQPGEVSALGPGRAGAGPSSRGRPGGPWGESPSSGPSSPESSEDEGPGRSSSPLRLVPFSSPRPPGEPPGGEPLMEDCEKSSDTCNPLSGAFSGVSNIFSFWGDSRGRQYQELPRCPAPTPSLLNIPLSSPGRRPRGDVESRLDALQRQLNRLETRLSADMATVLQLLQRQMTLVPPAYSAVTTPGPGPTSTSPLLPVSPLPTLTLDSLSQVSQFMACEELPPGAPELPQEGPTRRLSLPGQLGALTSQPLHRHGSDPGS
ASSAY TEXT: primary screen, population patch clamp on CHO cells stably expressing hERG; higher = less effect of the substance
The whole screen tested about 310,000 compounds, of which about 14,000 (4.5%) showed an effect of 50% or more. The effect is printed as a negative number. What follows is part of a selection rich in strong results, with near analogues and random picks from the rest.
VALUE TYPE: hERG current change (%, negative = inhibition) at 10uM (%)

MOLECULE | MEASURED
COc1ccc(CNC(=O)C2CCCN(S(=O)(=O)c3ccc(-n4cnnn4)cc3)C2)cc1 (stereo not drawn) | -8.97
COc1cc(/C=C/c2noc(-c3ccccc3O)n2)cc(OC)c1OC | 9.26
CC(=O)Nc1ccc(CN2CCC(CO)(CCOc3ccccc3)CC2)cc1 | -69.9
O=C(Nc1cccc(Cl)c1)N1CCC(CO)(CCOc2ccccc2)CC1 | -58.6
COc1cccc(CNC(=O)C2CCN(S(=O)(=O)c3ccc(C)cc3)CC2)c1 | -50.4
O=C(Nc1cccc(Cl)c1)N1CCCC1 | 5.7
CCOC(=O)c1ccccc1NC(=O)COC(=O)c1ccccc1C(=O)N(C)c1ccccc1 | -23.5
CCn1cc(C2C(C(=O)Nc3cc(C)ccn3)=C(C)NC3=C2C(=O)CC(C)(C)C3)c(C)n1 (stereo not drawn) | 11.3
COc1ccc(NC(=O)c2ccc(Cn3cc(Cl)cn3)cc2)cc1 | 1.21
O=C(Nc1cccc(Cl)c1)OCCOc1ccccc1 | 23
OCC1(CCOc2ccccc2)CCN(Cc2ccncc2)CC1 | -41.5
COc1ccc(-c2occ(C(=O)O)c2C(=O)O)cc1 | -3.07

FYI, the data here is from paper PMC4336329.
